- STUDY TARGET: GST-tagged truncated LRRK2 (Homo sapiens (Human), UniProt Q5S007)
- Sequence (Q5S007 970-2527): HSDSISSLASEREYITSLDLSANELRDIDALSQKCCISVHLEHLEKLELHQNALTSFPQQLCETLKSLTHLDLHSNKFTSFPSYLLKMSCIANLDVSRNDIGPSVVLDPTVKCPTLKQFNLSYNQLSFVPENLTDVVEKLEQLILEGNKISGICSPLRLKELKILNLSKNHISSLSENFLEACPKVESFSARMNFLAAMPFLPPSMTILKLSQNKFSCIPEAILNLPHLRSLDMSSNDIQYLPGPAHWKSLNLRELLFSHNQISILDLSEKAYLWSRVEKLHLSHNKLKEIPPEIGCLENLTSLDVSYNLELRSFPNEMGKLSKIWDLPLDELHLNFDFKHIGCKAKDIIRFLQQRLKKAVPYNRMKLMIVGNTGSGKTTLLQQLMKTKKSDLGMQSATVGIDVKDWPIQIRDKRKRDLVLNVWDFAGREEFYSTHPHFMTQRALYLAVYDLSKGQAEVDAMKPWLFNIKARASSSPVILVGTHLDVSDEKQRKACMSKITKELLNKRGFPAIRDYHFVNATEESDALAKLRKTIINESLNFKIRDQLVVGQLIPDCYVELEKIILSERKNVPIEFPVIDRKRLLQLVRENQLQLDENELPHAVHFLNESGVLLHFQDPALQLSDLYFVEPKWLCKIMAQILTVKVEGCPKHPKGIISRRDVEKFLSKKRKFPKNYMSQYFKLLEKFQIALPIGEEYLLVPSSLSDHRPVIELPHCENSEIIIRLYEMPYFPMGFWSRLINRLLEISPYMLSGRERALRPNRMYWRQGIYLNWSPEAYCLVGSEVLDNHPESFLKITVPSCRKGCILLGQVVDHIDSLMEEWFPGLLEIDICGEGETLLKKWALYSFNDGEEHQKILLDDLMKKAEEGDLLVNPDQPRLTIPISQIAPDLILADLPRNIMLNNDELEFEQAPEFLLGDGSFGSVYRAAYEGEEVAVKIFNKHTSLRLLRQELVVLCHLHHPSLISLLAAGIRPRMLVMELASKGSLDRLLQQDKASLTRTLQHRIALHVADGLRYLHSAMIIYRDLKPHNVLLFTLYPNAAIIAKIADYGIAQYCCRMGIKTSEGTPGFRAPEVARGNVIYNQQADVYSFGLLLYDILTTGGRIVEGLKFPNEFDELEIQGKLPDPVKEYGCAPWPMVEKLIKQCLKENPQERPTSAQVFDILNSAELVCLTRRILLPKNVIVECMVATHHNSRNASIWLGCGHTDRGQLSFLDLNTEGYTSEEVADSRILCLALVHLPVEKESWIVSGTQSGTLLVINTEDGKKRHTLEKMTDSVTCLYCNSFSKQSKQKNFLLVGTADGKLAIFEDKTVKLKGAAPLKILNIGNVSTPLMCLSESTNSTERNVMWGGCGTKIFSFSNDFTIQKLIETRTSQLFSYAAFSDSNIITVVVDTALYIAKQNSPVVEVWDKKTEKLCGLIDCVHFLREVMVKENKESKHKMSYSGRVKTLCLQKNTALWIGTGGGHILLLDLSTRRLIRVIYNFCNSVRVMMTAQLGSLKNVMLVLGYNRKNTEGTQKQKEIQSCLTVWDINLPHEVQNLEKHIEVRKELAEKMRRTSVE
- ASSAY DETAILS: LRRK2 Lantha Screen kinase assay
- CONDITION SET: geometric mean of 2-5 determinations unless otherwise indicated (a: >=6 determinations; b: single determination); read-out: LRRK2 WT IC50
READOUT: IC50 (nM)

[1] CN(C)c1ncnc2[nH]cc(-c3cccc(C#N)c3F)c12 [Example 69]
[2] C[C@H]1CCCN(c2ncnc3[nH]cc(-c4cccc(O)c4)c23)C1 [Example 58]
[3] COc1ccc(C#N)cc1-c1c[nH]c2ncnc(N(C)C)c12 [Example 24]
[4] COc1ccc(F)cc1-c1c[nH]c2ncnc(N3CC[C@H](F)C3)c12 [Example 185]
input: Returns the items ordered by IC50, from maximum to minimum. Put the labels in the requested order and list them out.
output: 3, 4, 2, 1
